# ASSAY SYSTEM: UniProt:Q15858
# EXPERIMENTAL PROTOCOL: Nav 1.7 in vitro PX assay (PatchXpress whole cell voltage clamp)
# Format: cell-based
# CONDITION SET: 293 cells, human Nav1.7, partially inactivated state; read-out: Nav1.7 PX IC50 IP
QUANTITY: log10 IC50 (log10 of the value in nM)
log10 IC50, nM

stdin: Give log10 IC50 for COc1cc(Cl)ccc1-c1ncc(F)c2cc(S(=O)(=O)Nc3nccs3)ccc12 [Example 215]
stdout: 1.93

stdin: Annotate the compound COc1cc(-c2cccc(F)c2)c(C#N)cc1-c1nccc2cc(S(=O)(=O)Nc3ncns3)ccc12 [Example 340] with its measured log10 IC50.
stdout: 1.75

stdin: For N#CC(F)Oc1cc(F)ccc1-c1nccc2cc(S(=O)(=O)Nc3nccs3)ccc12 (centres unmarked) [Example 416] , write its log10 IC50.
stdout: 3.09

stdin: For the compound COc1cc(-c2cccc(F)c2)ccc1-c1ncnc2cc(S(=O)(=O)Nc3ccncn3)ccc12 [Example 527] , give its measured log10 IC50 value.
stdout: 2.40

* * *

Reported IC50 values follow for various compounds
# ASSAY SYSTEM: Nav 1.7 (Homo sapiens (Human))
# EXPERIMENTAL PROTOCOL: Nav 1.7 in vitro PX assay (PatchXpress whole cell voltage clamp)
# Format: cell-based
# CONDITION SET: 293 cells, human Nav1.7, partially inactivated state; read-out: Nav1.7 PX IC50 IP
# Method: Nav 1.7 In Vitro PX Assay 293 cells stably transfected with human Nav1.7 were recorded in whole cell voltage clamp mode with the PatchXpress automated electrophysiology system (Molecular Devices, LLC, Sunnyvale, Calif.). Compound effects were measured on a partially inactivated state of the sodium channel. Cells were clamped to a holding potential yielding 20 to 50% inactivation. […] Peak sodium current was measured at the end of the compound addition period to determine percent inhibition. […]
Just the number please, in nM, no unit attached.

Consider the reported IC50 for these compounds:
COc1cc(F)ccc1-c1nncc2cc(S(=O)(=O)Nc3ncc(F)s3)ccc12 [Example 256] : 840
Cn1ccnc1-c1cc(C(F)(F)F)ccc1-c1cccc2cc(S(=O)(=O)Nc3ncc(F)s3)ccc12 [Example 111] : 332
COC(=O)c1cccc2cc(S(=O)(=O)Nc3ncns3)ccc12 [Example 318] : 37400

stdin: Determine from records and report IC50 for O=S(=O)(Nc1ncns1)c1ccc2c(N3CCC[C@@H]3c3cccnc3)cccc2c1 (single isomer, unassigned) [Example 87]
stdout: 1320

* * *

# ASSAY SYSTEM: Nav 1.7 (Homo sapiens (Human), UniProt Q15858)
# Sequence (Q15858 whole entry): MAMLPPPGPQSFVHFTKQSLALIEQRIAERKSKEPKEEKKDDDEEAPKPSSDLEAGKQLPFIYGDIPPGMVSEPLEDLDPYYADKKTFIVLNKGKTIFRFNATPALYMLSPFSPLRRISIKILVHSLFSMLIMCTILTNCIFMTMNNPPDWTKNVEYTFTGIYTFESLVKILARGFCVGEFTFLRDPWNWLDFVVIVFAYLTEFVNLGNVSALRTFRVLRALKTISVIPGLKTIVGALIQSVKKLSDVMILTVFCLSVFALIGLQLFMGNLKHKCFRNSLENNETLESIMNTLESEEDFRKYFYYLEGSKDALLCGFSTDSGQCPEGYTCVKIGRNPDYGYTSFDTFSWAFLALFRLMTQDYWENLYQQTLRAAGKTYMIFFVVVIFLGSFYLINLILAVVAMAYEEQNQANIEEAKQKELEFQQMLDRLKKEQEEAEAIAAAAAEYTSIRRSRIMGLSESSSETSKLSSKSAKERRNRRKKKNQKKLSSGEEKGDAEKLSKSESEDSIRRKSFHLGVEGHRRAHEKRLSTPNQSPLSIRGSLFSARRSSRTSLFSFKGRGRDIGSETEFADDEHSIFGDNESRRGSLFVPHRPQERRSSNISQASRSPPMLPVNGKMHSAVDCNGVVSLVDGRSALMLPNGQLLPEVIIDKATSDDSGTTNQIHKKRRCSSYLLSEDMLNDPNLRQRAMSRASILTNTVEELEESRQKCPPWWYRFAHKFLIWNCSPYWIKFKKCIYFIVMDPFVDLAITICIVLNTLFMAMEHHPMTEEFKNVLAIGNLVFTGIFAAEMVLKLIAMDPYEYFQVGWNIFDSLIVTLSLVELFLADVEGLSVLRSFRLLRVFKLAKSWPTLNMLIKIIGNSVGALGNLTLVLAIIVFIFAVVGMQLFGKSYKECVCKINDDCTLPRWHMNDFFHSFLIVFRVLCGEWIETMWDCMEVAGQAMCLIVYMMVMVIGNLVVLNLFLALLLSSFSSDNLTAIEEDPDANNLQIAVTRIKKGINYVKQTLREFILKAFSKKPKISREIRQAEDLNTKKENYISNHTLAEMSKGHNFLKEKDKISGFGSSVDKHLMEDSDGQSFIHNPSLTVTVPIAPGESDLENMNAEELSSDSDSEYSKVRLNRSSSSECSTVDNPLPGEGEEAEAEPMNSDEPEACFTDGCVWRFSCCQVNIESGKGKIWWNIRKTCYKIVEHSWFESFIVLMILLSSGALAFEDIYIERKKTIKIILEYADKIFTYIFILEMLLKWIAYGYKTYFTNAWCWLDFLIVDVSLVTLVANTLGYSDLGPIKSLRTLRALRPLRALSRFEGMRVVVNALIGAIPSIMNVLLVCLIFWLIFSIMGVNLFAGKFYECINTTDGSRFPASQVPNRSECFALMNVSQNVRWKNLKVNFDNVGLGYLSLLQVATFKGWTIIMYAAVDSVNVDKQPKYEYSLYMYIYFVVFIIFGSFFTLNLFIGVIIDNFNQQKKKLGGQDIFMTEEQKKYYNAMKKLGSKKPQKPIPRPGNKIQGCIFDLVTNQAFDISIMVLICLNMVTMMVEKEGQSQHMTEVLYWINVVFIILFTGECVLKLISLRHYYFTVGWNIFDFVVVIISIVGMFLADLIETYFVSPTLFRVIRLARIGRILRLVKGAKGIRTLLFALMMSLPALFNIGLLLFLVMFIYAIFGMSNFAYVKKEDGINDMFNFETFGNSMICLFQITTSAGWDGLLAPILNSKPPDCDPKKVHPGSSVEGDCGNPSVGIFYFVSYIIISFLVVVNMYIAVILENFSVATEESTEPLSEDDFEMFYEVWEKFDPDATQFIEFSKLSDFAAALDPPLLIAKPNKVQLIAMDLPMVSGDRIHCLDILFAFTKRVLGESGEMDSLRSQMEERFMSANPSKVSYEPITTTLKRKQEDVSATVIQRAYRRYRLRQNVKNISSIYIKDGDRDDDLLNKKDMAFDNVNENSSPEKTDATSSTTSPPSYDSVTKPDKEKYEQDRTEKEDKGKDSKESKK
# EXPERIMENTAL PROTOCOL: Nav 1.7 IWQ in vitro assay (IonWorks Quattro population patch-clamp)
# Type: cell-based
# CONDITION SET: 293 cells stably transfected with Nav 1.7; second part of table; read-out: Nav1.7 IWQ IC50 IP
QUANTITY: pIC50
pIC50 (log units): -log10 of the concentration in mol/L.

Cn1ccc2cccc(-c3nccc4cc(S(=O)(=O)Nc5ccncn5)ccc34)c21 [Example 164] : 5.18

stdin: # return recorded pIC50 for entry COc1cc(Cl)ccc1-c1ncc(C#N)c2cc(S(=O)(=O)Nc3nccs3)ccc12 [Example 241]
stdout: 6.62

stdin: Report pIC50 for COc1cc(C#N)ccc1-c1nccc2cc(S(=O)(=O)Nc3ccncn3)ccc12 [Example 206]
stdout: 6.96

stdin: Quickly give me recorded pIC50 for COc1ccc(C(F)(F)F)cc1-c1nccc2cc(S(=O)(=O)Nc3nccs3)ccc12 [Example 180]
stdout: 7.40

stdin: Report pIC50 for O=S(=O)(Nc1nccs1)c1ccc2c(-c3ccc(C(F)(F)F)cc3CC(O)CO)nccc2c1 (stereo not shown) [Example 230, 2,2,2-TRIFLUOROACETATE]
stdout: 7.52

stdin: Identify pIC50 associated with the compound COCc1cc(C(F)(F)F)ccc1-c1nccc2cc(S(=O)(=O)Nc3nccs3)ccc12 [Example 225]
stdout: 7.52

stdin: Return pIC50 for the following compound: COc1cc(-c2cccnc2)ccc1-c1nccc2cc(S(=O)(=O)Nc3nccs3)ccc12 [Example 204]
stdout: 7.52

* * *

Listing of recorded Nav1.7 Single Point Data IWQ (at […]) (%) by entry.
# ASSAY SYSTEM: Nav 1.7 (Homo sapiens (Human))
# EXPERIMENTAL PROTOCOL: Nav 1.7 IWQ in vitro assay (IonWorks Quattro population patch-clamp)
# Format: cell-based
# CONDITION SET: at […]
Note: unit % is implicit; provide only the numeric part.

Here's what some known entries look like.
Cn1cc(CCOc2nccc3cc(S(=O)(=O)Nc4ccncn4)ccc23)cn1 : 24
O=S(=O)(Nc1ccncn1)c1ccc2c(-c3cccc4cc[nH]c34)nccc2c1 : 20.0
Cc1cnc(OCc2ccccc2)c(-c2nccc3cc(S(=O)(=O)Nc4nccs4)ccc23)c1 : 40
O=S(=O)(Nc1ccncn1)c1ccc2c(OCc3cccnc3N3CCOCC3)nccc2c1 : 29
O=S(=O)(Nc1ccncn1)c1ccc2c(OCc3cc4n(n3)CCCO4)nccc2c1 : 38
Cc1cnc(OCCN(C)C)c(-c2nccc3cc(S(=O)(=O)Nc4ccncn4)ccc23)c1 : 27.8

// below: Nav1.7 Single Point Data IWQ (at […]) (%) requested for another compound
stdin: Indicate the recorded Nav1.7 Single Point Data IWQ (at […]) (%) value for this compound: COc1nccc(NS(=O)(=O)c2ccc3c(-c4ccc(C(F)(F)F)cc4OC)nccc3c2)n1
stdout: 39

* * *

# ASSAY SYSTEM: Nav 1.7 (Homo sapiens (Human))
# EXPERIMENTAL PROTOCOL: Nav 1.7 IWQ in vitro assay (IonWorks Quattro population patch-clamp)
# Format: cell-based
# CONDITION SET: 293 cells stably transfected with Nav 1.7; first part of table; read-out: Nav 1.7 IWQ IC50
Entries and their measured log10 IC50 follow.
Give log10 of IC50, with IC50 taken in nM.

# annotated cases, reported log10 IC50 shown
O=S(=O)(Nc1ncns1)c1ccc2c(N3CCOCC3)cccc2c1 : 3.55
O=S(=O)(Nc1ncns1)c1ccc2c(-c3ccc(Cl)cc3-c3ccncc3)cccc2c1 : 1.70
O=S(=O)(Nc1ncns1)c1ccc2c(-c3ccc(C(F)(F)F)c(Cl)c3)nccc2c1 : 2.34
CC1CN(c2cccc3cc(S(=O)(=O)Nc4ncns4)ccc23)CCO1 (centres unmarked) : 3.37
CC1(c2ccccc2)CN(c2cccc3cc(S(=O)(=O)Nc4ncns4)ccc23)CCO1 (centres unmarked) : 3.11
COC(=O)C1CN(c2cccc3cc(S(=O)(=O)Nc4ncns4)ccc23)CCO1 (centres unmarked) : 3.66

stdin: Let me know recorded log10 IC50 for O=S(=O)(Nc1ncns1)c1ccc2c(N3CCOC(c4ccccc4)C3)cccc2c1 (racemic) [Example 14 (mixture of isomers)] , thanks.
stdout: 2.48

stdin: Identify the reported log10 IC50 for the following entry. O=S(=O)(Nc1ncns1)c1ccc2c(-c3ccccc3Cl)cccc2c1
stdout: 2.30

* * *

# ASSAY SYSTEM: Nav 1.7 (Homo sapiens (Human))
# EXPERIMENTAL PROTOCOL: Nav 1.7 in vitro PX assay (PatchXpress whole cell voltage clamp)
# Assay type: cell-based
# CONDITION SET: 293 cells, human Nav1.7, partially inactivated state; read-out: Nav1.7 PX IC50 IP
pIC50: −log10 of the molar value.
Note to self: class = bucket of pIC50, per category 1: < 6; category 2: ≥ 6 and < 7; category 3: ≥ 7

COc1cc(-c2cccc(C(F)(F)F)c2)c(C#N)cc1-c1nccc2cc(S(=O)(=O)Nc3nncs3)ccc12 [Example 339] : category 3
COc1cc(-c2cc(F)cc(F)c2)c(F)cc1-c1nccc2cc(S(=O)(=O)Nc3nncs3)ccc12 [Example 364] : category 3
COc1cccc(F)c1-c1nccc2cc(S(=O)(=O)Nc3ccncn3)ccc12 [Example 158] : category 1
COc1cc(NS(=O)(=O)c2ccc3c(-c4ccc(C(F)(F)F)cc4OC)nccc3c2)ncn1 [Example 181] : category 1

stdin: Classify this molecule: COc1cc(OCC(C)C)ccc1-c1nccc2cc(S(=O)(=O)Nc3ccncn3)ccc12 [Example 361]
stdout: category 2

stdin: Exercise: read the entry COc1ccc(Cl)cc1-c1n[nH]c(=O)c2cc(S(=O)(=O)Nc3ncc(F)s3)ccc12 [Example 507] and state which class it falls under.
stdout: category 2

stdin: Kindly state the category for this molecule: COc1cc(Oc2ccc(F)cc2)ccc1-c1nccc2cc(S(=O)(=O)Nc3ccncn3)ccc12 [Example 462]
stdout: category 2

stdin: Consider O=S(=O)(Nc1ccncn1)c1ccc2c(OCc3cccc4[nH]ncc34)nccc2c1 [Example 136] . To which pIC50 class does it belong?
stdout: category 1

stdin: Any idea which band COc1ncccc1-c1nccc2cc(S(=O)(=O)Nc3nccs3)ccc12 [Example 407] is in?
stdout: category 1

stdin: Bin this entry: COc1cc(C#N)ccc1-c1ccnc2cc(S(=O)(=O)Nc3nccs3)ccc12 [Example 273]
stdout: category 2

stdin: Note: place this molecule into its band. Item: COc1cc(C(F)(F)F)ccc1-c1nccc2cc(S(=O)(=O)Nc3cnsn3)ccc12 [Example 388]
stdout: category 1

stdin: Where would COc1nc(OCC(C)C)ccc1-c1nccc2cc(S(=O)(=O)Nc3ccncn3)ccc12 [Example 418] land among the classes by reported pIC50?
stdout: category 1
